Some binders, each annotated with its measured EC50 Calu6 inhibition.
Measured target: T1, human CD73 on cells (Calu6, NCI-H292, SK-MEL-24, human tumor cell lines, human B and T cells) (human, UniProt P21589 27-549)
T1 sequence: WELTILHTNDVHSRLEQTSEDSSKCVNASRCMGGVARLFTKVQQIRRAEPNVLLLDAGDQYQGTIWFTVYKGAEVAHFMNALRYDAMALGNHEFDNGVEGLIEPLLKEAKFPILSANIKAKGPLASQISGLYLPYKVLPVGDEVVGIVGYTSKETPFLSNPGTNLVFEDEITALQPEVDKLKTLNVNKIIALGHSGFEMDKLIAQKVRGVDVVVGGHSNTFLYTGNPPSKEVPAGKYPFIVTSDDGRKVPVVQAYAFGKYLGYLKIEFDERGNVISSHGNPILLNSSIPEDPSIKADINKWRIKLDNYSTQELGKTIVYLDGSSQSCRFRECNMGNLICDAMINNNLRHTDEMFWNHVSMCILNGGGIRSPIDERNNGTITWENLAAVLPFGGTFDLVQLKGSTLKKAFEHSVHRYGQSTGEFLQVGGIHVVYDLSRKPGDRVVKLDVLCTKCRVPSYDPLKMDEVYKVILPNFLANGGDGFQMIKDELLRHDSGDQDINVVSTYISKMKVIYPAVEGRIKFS
Assay explanation: cell-based or functional assay
Please provide the amount together with its unit, number first.

Example results:
| Binder | Result |
| --- | --- |
| 7A11 (antibody, human IgG1, kappa, V domains shown, IgG1za from hybridoma; also called 7A11-1) VH: EVQLVESGGGLVQTGRSLRLSCAASGFTFDDYAMHWVRQAPGKGLEWVSDISWNSDIIGYADSVKGRFTISRDNAKNSLYLQMNSLRAEDTALYYCAKDIYGSGSSFFDYWGQGILVTVSS VL: DIQMTQSPSSLSASVGDRVTITCRASQYISSWLAWYQQKPEKAPKSLIYAASSLQSGVPSRFSGSGSGTDFTLTISSLQPEDFATYYCQQYHSYPPTFGQGTRLEIKR | 0.95 nM |
| 11A6 (antibody, human IgG1, kappa, V domains shown, IgG1za from hybridoma; also called 11A6-1) VH: EVQLVESGGNLVQPGRSLRLSCAASGFTFDDYAMHWVRQAPGKGLEWVSGISWNNNDIGYADSVKGRFIISRDNAKNSLYLQMNSLRPEDTALYYCVKGYYVILTGLDYWGQGTPVTVSS VL: DIQMTQSPSSLSASVGDRVTITCRASQGISSWLAWYQQKPEKAPKSLIYAASSLQSGVPSRFSGSGSGTDFTLTISSLQPEDFATYYCQQYNSYPLTFGGGTKVEIKR | 2.21 nM |

Now for another entry.
INPUT: Could you please provide reported EC50 Calu6 inhibition for 5F8 (antibody, human IgG1, kappa, V domains shown, IgG1za from hybridoma; predominant light chain VK1, VK2 also expressed; also called 5F8-1) VH: EVQLVESGGGLVQPGGSLRLSCAASGFTFSSYWMHWVRQAPGKGLVWVSRIISDGSSTGYADSVKGRFTISRDNAKNTLYLQMNSLRAEDTAVYYCAREFSSGWYFDYWGQGTLVTVSS VL: AIQLTQSPSSLSASVGDRVTITCRASQGISSALAWYQQKPGKAPKLLIYDASSLESGVPSRFSGSGSGTDFTLTISSLQPEDFATYYCQQFSSYPRTFGQGTKVEIKR ? Thanks!
OUTPUT: 8.1 nM
